These data points were gathered from patent US7030121B2.

Form field: melting point (one value per entry).

Recorded results for 8 compounds are shown here.
CCn1cc(-c2c(-c3ccccc3)nn3ccncc23)ccc1=O [Example 4] :: 192 to 193 °C
Cn1cc(-c2c(-c3ccccc3)nn3ccncc23)ccc1=O [Example 2] :: 168 to 169 °C
O=c1ccc(-c2c(-c3ccccc3)nn3ccncc23)c[nH]1 [Example 1] :: > 250 °C
Cn1cc(-c2c(-c3ccc(F)cc3)nn3ccncc23)ccc1=O [Example 7] :: 222 to 223 °C
CCCn1cc(-c2c(-c3ccc(F)cc3)nn3ccncc23)ccc1=O [Example 10] :: 183 to 184 °C
CCn1cc(-c2c(-c3ccccc3F)nn3ccncc23)ccc1=O [Example 14] :: 173 to 174 °C
CC(C)n1cc(-c2c(-c3ccccc3)nn3ccncc23)ccc1=O [Example 3] :: 196 to 197 °C
CCn1cc(-c2c(-c3ccc(F)cc3)nn3ccncc23)ccc1=O [Example 9] :: 165 to 166 °C

For the next question, use this compound.
Entry CC(C)n1cc(-c2c(-c3ccccc3F)nn3ccncc23)ccc1=O [Example 13] — recorded melting point = 150 to 151 °C

###

property-label: melting point

Entry CCCn1cc(-c2c(-c3ccccc3F)nn3ccncc23)ccc1=O ; melting point = 127 to 128 °C

The recorded melting point for Cn1cc(-c2c(-c3ccccc3F)nn3ccncc23)ccc1=O is 193 to 194 °C

melting point measured on CCCn1cc(-c2c(-c3ccccc3)nn3ccncc23)ccc1=O = 165 to 166 °C

For record CC(C)n1cc(-c2c(-c3ccc(F)cc3)nn3ccncc23)ccc1=O the listed melting point is 214 to 215 °C

###

# target-system: human A1 receptor (Homo sapiens, UniProt P30542)
# Sequence (P30542 whole entry): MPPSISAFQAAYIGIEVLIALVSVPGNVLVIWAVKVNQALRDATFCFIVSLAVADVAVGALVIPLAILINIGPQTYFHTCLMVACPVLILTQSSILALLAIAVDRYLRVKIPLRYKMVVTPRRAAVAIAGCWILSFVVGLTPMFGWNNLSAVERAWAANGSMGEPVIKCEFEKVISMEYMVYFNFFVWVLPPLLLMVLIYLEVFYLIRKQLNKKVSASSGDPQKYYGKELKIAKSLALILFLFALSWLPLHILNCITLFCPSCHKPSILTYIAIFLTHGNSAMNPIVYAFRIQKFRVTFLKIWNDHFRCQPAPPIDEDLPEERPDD
# protocol-text: Adenosine antagonistic activity, radioligand binding with [3H]DPCPX
# condition: [3H]DPCPX 4.5 nM
Parameter Ki: see the listing below.
Use nM as the unit, but write only the number.

Consider the following illustrative entries.
CCn1cc(-c2c(-c3ccc(F)cc3)nn3ccncc23)ccc1=O :: 0.36
O=c1ccc(-c2c(-c3ccccc3)nn3ccncc23)c[nH]1 :: 0.18

Now examine the next entry.
Please fill in: Ki reported for Cn1cc(-c2c(-c3ccccc3)nn3ccncc23)ccc1=O = 0.35
